experiment: Toxicity liver stage against HepG2, at 10uM; type: cell-based; set-up: test concentration 10 uM, cell line HepG2-A16-CD81EGFP; settings: human, HepG2-A16-CD81EGFP cells; read-out: INHIBITION
# reported cytotoxicity at 10 µM; entries follow
Quick reminder: number only, in %, skip the unit.

// known answers, use as guide
Compound | cytotoxicity at 10 µM / %
O=C(c1ccc2c(c1)[nH]c(=O)n2C1CCCC1)N1CC(O)C1 | -53.5
COCCN(Cc1ccccc1)Cc1nc(-c2ccsc2)no1 | 5.6
Fc1ccc(CN2CC[C@H]3O[C@@H](COCc4cccnc4)CC[C@H]32)cc1 | -70

Record Cc1nnc([C@@]23CCO[C@@H]2CCN(S(C)(=O)=O)C3)o1 , field cytotoxicity at 10 µM: 9.16

Entry Cc1ccc(CC2CCCN2CC(=O)NCc2ccccn2)cc1 (stereo not drawn) — recorded cytotoxicity at 10 µM = 6.46

Record CCn1c(CC2CCN(S(=O)(=O)c3cccs3)CC2)nn(C)c1=O . Reported cytotoxicity at 10 µM: 3.63

Notebook: CNC(=O)C1(c2cnccn2)CCCN1C(=O)c1ccc(OC)cc1 (stereo not drawn) , cytotoxicity at 10 µM read as -12.9

# cytotoxicity at 10 µM (compound: FCCOc1cccc(NCc2c[nH]nc2-c2cccnc2)c1 ) is 1.14

Looking up Cc1cc(C)nc(Nc2cncc(C3CCCN(S(C)(=O)=O)C3)n2)n1 (stereo not drawn) , I see its cytotoxicity at 10 µM listed as -16.1

The reported value for Cc1cc(CN(C)S(=O)(=O)N2CCCC2c2ccc(C)o2)no1 (stereo not drawn) in terms of cytotoxicity at 10 µM is 3.33

Form field cytotoxicity at 10 µM, entry CCC(CC)S(=O)(=O)NC(=O)c1ccc2c(c1)ncn2C : -6.58

# compound CCN(CC)CCCNCc1cc2cccc(C)c2[nH]c1=O ; its cytotoxicity at 10 µM = -7.06

Looking up CN(C)CCN1C(=O)CCC12CCN(C(=O)CC1CC1)CC2 , I found its cytotoxicity at 10 µM recorded as 3.35

====

experiment: Toxicity liver stage against HepG2, at 10uM; type: cell-based; design: test concentration 10 uM, cell line HepG2-A16-CD81EGFP; settings: human, HepG2-A16-CD81EGFP cells; read-out: INHIBITION
The following compounds are shown together with reported cytotoxicity at 10 µM values.
Report the value in % with no unit label.

A selection of reference data follows.
Compound | Reading
CCC(NC(=O)c1cccc2cc[nH]c12)C(=O)N1CCOCC1 (configuration not stated) | -13
CCc1cccc(OCC(=O)N2CCCC(n3cncn3)C2)c1 (configuration not stated) | -7.62
COc1c(C2CCCN2CC(=O)Nc2cc(C)on2)c(C)nn1C (configuration not stated) | -1.19
O=C(O)C1(Cc2cccc(-c3ccc(F)c(F)c3)c2)CCOCC1 | -2.5
Cn1cc(C(=O)CC2CCCN2C(=O)c2n[nH]c3ccccc23)cn1 (configuration not stated) | -0.842
O=C(c1cccc2c1OCCO2)N1CCCC1Cn1cccn1 (configuration not stated) | -10.7

Record summary for CN(C)CCN1CCCC12CCN(C(=O)c1cccn1C)CC2 : reported cytotoxicity at 10 µM = -2.03

Briefly, cytotoxicity at 10 µM measured for CCNc1ncnc2c1CN(C1CCCNCC1)C(=O)CN2C (configuration not stated) : 5.5

Please fill in: cytotoxicity at 10 µM reported for Cc1ccc(O)c(CNc2cccc(OCCF)c2)n1 = -3.09
